Sourced from patent US10246453B2

Target: NaV1.1 (Homo sapiens (Human))
Assay: Sodium Influx Assay (Flux), NaV1.1
Type: cell-based
Conditions: Trex HEK293 cells, ANG2 dye; arithmetic mean
Structures can show the parent of a compound that is named as a salt.
// reported IC50 per item
ATTRIBUTE_MEASURED: IC50 (µM)

MOLECULE: Cc1cccc(CN2CC[C@H](N(C)c3ccc(S(=O)(=O)Nc4ncns4)cc3Cl)C2)c1F [Example 34, 2,2,2-trifluoroacetate]
EXPERIMENTAL_SYSTEM: NaV1.1 (Homo sapiens (Human))
MEASUREMENT_UNIT: µM
CMP: =
READOUT_VALUE: 19.9
//
MOLECULE: CN(c1cc(F)c(S(=O)(=O)Nc2cscn2)cc1Cl)[C@H]1CCN(Cc2ccc[nH]2)C1
EXPERIMENTAL_SYSTEM: NaV1.1 (Homo sapiens (Human))
MEASUREMENT_UNIT: µM
CMP: =
READOUT_VALUE: 25.1
//
MOLECULE: Cc1cccc(CN2CC[C@H](N(C)c3cc(F)c(S(=O)(=O)Nc4ncns4)c(F)c3C)C2)n1 [Example 296, 2,2,2-trifluoroacetate]
EXPERIMENTAL_SYSTEM: NaV1.1 (Homo sapiens (Human))
MEASUREMENT_UNIT: µM
CMP: >
READOUT_VALUE: 30
//
MOLECULE: CN(c1cc(F)c(S(=O)(=O)Nc2cscn2)cc1C1CC1)[C@H]1CCN(Cc2ccccc2)C1 [Example 289, 2,2,2-trifluoroacetate]
EXPERIMENTAL_SYSTEM: NaV1.1 (Homo sapiens (Human))
MEASUREMENT_UNIT: µM
CMP: =
READOUT_VALUE: 7.02
//
MOLECULE: CN(c1ccc(S(=O)(=O)Nc2ncns2)cc1Cl)[C@H]1CCN(Cc2cc(F)cc(F)c2)C1 [Example 327, formate]
EXPERIMENTAL_SYSTEM: NaV1.1 (Homo sapiens (Human))
MEASUREMENT_UNIT: µM
CMP: =
READOUT_VALUE: 17.3
//
MOLECULE: Cc1cc(S(=O)(=O)Nc2cscn2)c(F)cc1N[C@H]1CCN(Cc2ccccc2)C1 [Example 288, 2,2,2-trifluoroacetate]
EXPERIMENTAL_SYSTEM: NaV1.1 (Homo sapiens (Human))
MEASUREMENT_UNIT: µM
CMP: =
READOUT_VALUE: 15.9
//
MOLECULE: Cc1cc(S(=O)(=O)Nc2ccc(F)cn2)c(F)cc1N(C)[C@H]1CCN(Cc2ccccc2)C1
EXPERIMENTAL_SYSTEM: NaV1.1 (Homo sapiens (Human))
MEASUREMENT_UNIT: µM
CMP: =
READOUT_VALUE: 6.73
